- TARGET DESC: FXI
- EXPERIMENTAL DETAILS: Kd (SPR)
pKd: −log10 of the molar value.
Some binders, each annotated with its measured pKd.
ASSAY METRIC: pKd

>>> val("unnamed (protein) chain 1: EVQLLESGGGLVQPGGSLRLSCAASGFTFSQYGMDWVRQAPGKGLEWVSGIGPSGGSTVYADSVKGRFTISRDNSKNTLYLQMNSLRAEDTAVYYCTRGGPSWYYAFDVWGQGTTVTVSS chain 2: DIQMTQSPSSLSASVGDRVTITCQASQDISNYLNWYQQKPGKAPKLLIYDASNLETGVPSRFSGSGSGTDFTFTISSLQPEDIATYYCQQADSFPVTFGGGTKVEIK")
6.68
>>> val("unnamed (protein) chain 1: EVQLLESGGGLVQPGGSLRLSCAASGFTFSQYGMDWVRQAPGKGLEWVSGIGPSGGSTVYADSVKGRFTISRDNSKNTLYLQMNSLRAEDTAVYYCTRDGPYYYYAFDYWGQGTTVTVSS chain 2: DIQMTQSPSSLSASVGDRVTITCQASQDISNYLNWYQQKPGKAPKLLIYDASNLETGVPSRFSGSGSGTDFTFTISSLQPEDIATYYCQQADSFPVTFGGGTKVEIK")
7.17

Source: the FLAb antibody collection (doi:10.1101/2023.12.08.570889)
